- Tested on: CD28 (Homo sapiens, UniProt P10747)
- Procedure text: Flow binding to Jurkat/IL2 reporter cells (CD28)
- Set-up: host or cells: Jurkat cells expressing an IL-2-luciferase reporter
- Settings: Table E16; consensus variants; Jurkats (CD28); 33.3 nM
Parameter: CD28 MFI at 33.3 nM
Respond using a number only.

Asked: Tell me measured CD28 MFI at 33.3 nM for H18Y/E35D/M47V/V68M/L85M (protein, UniProt P33681 35-288, looked up, variant H18Y E35D M47V V68M L85M) T-lymphocyte activation …: VIHVTKEVKEVATLSCGYNVSVEELAQTRIYWQKDKKMVLTMMSGDVNIWPEYKNRTIFDITNNLSIMILALRPSDEGTYECVVMKYEKDAFKREHLAEVTLSVKADFPTPSISDFEIPTSNIRRIICSTSGGFPEPHLSWLENGEELNAINTTVSQDPETELYAVSSKLDFNMTTNHSFMCLIKYGHLRVNQTFNWNTTKQEHFPDNLLPSWAITLISVNGIFVICCLTYCFAPRCRERRRNERLRRESVRPV please.
Given back: 1387
